Cited source: patent US4605662A

- assay.procedure: 50% lethal dose (LD50) by Up and Down Method in mice, and therapeutic index
- Format: in vivo
- condition.details: mouse, in vivo; Up and Down Method; male ddy mice 18 to 22 g
attribute.measured: LD50

Below are worked cases with known answers.
{"compound": "O=C(Nc1ccccc1Br)[C@@H]1CCN2CCC[C@@H]12 (relative stereo) [VI]", "attribute.measured": "LD50", "experimental.result": "> 500 mg/kg"}
{"compound": "COc1ccc(NC(=O)[C@@H]2CCN3CCC[C@@H]23)cc1 (relative stereo) [IV]", "attribute.measured": "LD50", "experimental.result": "> 500 mg/kg"}
{"compound": "COc1cccc(NC(=O)[C@@H]2CCN3CCC[C@@H]23)c1 (relative stereo) [III]", "attribute.measured": "LD50", "experimental.result": "> 500 mg/kg"}

Give measured LD50 for every item shown.
1. O=C(Nc1ccccc1Cl)[C@@H]1CCN2CCC[C@@H]12 (relative stereo) [V]
2. Cc1cccc(NC(=O)[C@@H]2CCN3CCC[C@@H]23)c1C (relative stereo) [VII]
3. COc1ccc(OC)c(NC(=O)[C@@H]2CCN3CCC[C@@H]23)c1 (relative stereo) [XII]

1: 263 mg/kg; 2: > 500 mg/kg; 3: > 500 mg/kg

Dear colleague, I am looking for the recorded LD50 of the following compound: O=C(Nc1c(Cl)cccc1Cl)[C@@H]1CCN2CCC[C@@H]12 (relative stereo) [XIII]
263 mg/kg

----------
What LD50 was measured for each of the following?
- assay.procedure: 50% lethal dose (LD50) by Up and Down Method in mice, and therapeutic index
- Type: in vivo
- condition.details: mouse, in vivo; Up and Down Method; male ddy mice 18 to 22 g
Answers are plain numbers, in mg/kg.

Below are worked cases with known answers.
{"compound": "O=C(Nc1c(Br)cccc1Br)[C@@H]1CCN2CCC[C@@H]12 (relative stereo)", "experimental.result": 468}
{"compound": "Cc1cccc(C)c1NC(=O)[C@@H]1CCN2CCC[C@@H]12 (relative stereo)", "experimental.result": 447}
{"compound": "CCc1cccc(CC)c1NC(=O)[C@@H]1CCN2CCC[C@@H]12 (relative stereo)", "experimental.result": 244}

Dear colleague, I am looking for the recorded LD50 of the following compound: Cc1cc(C)c(NC(=O)[C@@H]2CCN3CCC[C@@H]23)c(C)c1 (relative stereo)
394
